In this section we review reported IC50 values for a set of molecules.
Target: Sigma non-opioid intracellular receptor 1 (Homo sapiens)
Sequence (Q99720 whole entry): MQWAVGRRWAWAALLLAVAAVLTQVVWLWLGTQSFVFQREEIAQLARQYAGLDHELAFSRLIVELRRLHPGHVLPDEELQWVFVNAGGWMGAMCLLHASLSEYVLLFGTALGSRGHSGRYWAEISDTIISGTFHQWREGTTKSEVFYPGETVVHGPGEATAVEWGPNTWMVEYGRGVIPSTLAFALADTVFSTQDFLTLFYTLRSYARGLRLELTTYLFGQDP
Experiment: Displacement of 5-(Dimethylamino)-2-{6-[(5-(4-(4-methylpiperidin-1-yl)butyl)naphthalen-2-yl)oxy]hexyl}isoindole-1,3-dione from sigma 1 receptor (unknown origin) expressed in MCF7 cells after 75 mins by flow cytometry
PROPERTY LABEL: IC50 (nM)

| MOLECULE | MEASURE UNIT | ASSAY RESULT |
| --- | --- | --- |
| COc1ccc2c(CCCCN3CCC(C)CC3)cccc2c1 | nM | 10.6 |
| COc1ccc2c(c1)CCCC2CCCCN1CCC(C)CC1 (configuration not stated) | nM | 12.1 |
